Source of measurements: PubChem BioAssay (NCI)

Give growth for every item shown.
System: HCT-15 colon
protocol summary: NCI-60 one-dose screen, 48 h (100 = growth as untreated, 0 = no growth, -100 = all killed)
reported conditions: 10 µM unless noted
This is part of a sample that, as a whole, favours compounds with a hit. Of some 83,000 tested, about 20% had one in any assay.
Use % as the unit, but write only the number.

Incoming: Complete the entry with growth for "Oc1ccc(CSc2nnc(-c3ccc(Br)cc3)n2-c2ccccc2)c2cccnc12"
Outgoing: 15.7

Incoming: Complete the entry with growth for "IP(CCCSc1n(Cc2ccc3ccccc3c2)c(-c2ccccc2)c(-c2ccccc2)[n+]1Cc1ccc2ccccc2c1)(c1ccccc1)(c1ccccc1)c1ccccc1"
Outgoing: 94.5

Incoming: Annotate the compound "COc1cc(/C=C/C(=O)c2ccc(NC(=O)COc3cccc4cccnc34)cc2)cc(OC)c1OC" with its measured growth.
Outgoing: 50.3

Incoming: Indicate its recorded growth; the compound in question is "O=C(NCCCCCCNC(=O)c1c2c(nc3ccccc13)-c1cccnc1SC2)c1c2c(nc3ccccc13)-c1cccnc1SC2"
Outgoing: 74.8

###

Tested on: K-562 leukemia
protocol summary: NCI-60 one-dose screen, 48 h
reported conditions: 10 µM unless noted
Compounds without any hit were thinned out: in the full panel of roughly 83,000, 20% have a hit. Active and inactive are the calls of the source. Rule for the calls: active = growth percent below 10; inactive = the rest.
Valid outcomes are listed here; reply with one: True (active), False (inactive)

Incoming: Tell me the recorded outcome of this test for "O=c1[nH]c2cc(Cl)ccc2n1C1CCN(c2ccc3nnc(Cl)n3n2)CC1" .
Outgoing: False

Incoming: Recorded test call requested for "O=C1CC2(CCOCC2)Oc2ncccc21"
Outgoing: True

Incoming: Check the results log: what was the call for "Oc1ccccc1/C=N/Nc1nc(N/N=C/c2ccccc2O)nc(N2CCOCC2)n1" ?
Outgoing: False

Incoming: For "O=S(=O)(Nc1ccc2c(c1)OC(F)(F)O2)c1ccc(-c2cnc(C3CC3)o2)cc1" , which call appears in the assay record?
Outgoing: True

Incoming: Give the logged outcome of this assay for the following molecule: "CNC(=O)c1cc(Oc2ccc3nc(NC(=O)c4ccc(CN5CCCN(C)CC5)c(C(F)(F)F)c4)sc3c2)ccn1"
Outgoing: True

Incoming: Each molecule tested received a call. Report the one for "Cn1nc(Nc2ccccc2)c(C(=O)NN)c1N" .
Outgoing: False

Incoming: # fetch the recorded call for "COc1ccc(NC(=O)[C@H](C)N)cc1C(=O)Nc1cccc(-c2cc(=O)c3c(OC)c(OC)c(OC)cc3o2)c1" here
Outgoing: False

Incoming: Hi team, can someone confirm the assay call for "Cc1cn(-c2cc(NC(=O)c3cncc(C#Cc4cnc5ccc(O[C@H]6CCOC6)nn45)c3)cc(C(F)(F)F)c2)cn1" ?
Outgoing: False

Incoming: Status in this test for "Cc1cc(O)c(=O)cc2c1C[C@H]1CC(C)(C)/C=C/C[C@]3(C)Oc4cc(=O)c(O)cc(C)c4C[C@H]3C[C@H](O)[C@@]1(C)O2" ?
Outgoing: True

###

Tested on: SF-539 CNS
protocol summary: NCI-60 one-dose screen, 48 h (100 = growth as untreated, 0 = no growth, -100 = all killed)
reported conditions: 10 µM unless noted
This is part of a sample that, as a whole, favours compounds with a hit. Of some 83,000 tested, about 20% had one in any assay.
Please note: 1 (yes) applies when growth is -10% or greater, and 0 (no) applies otherwise.

Incoming: Confirm if growth reported for the compound CCC(CC)N1C(=O)/C(=c2\sc3n(c2=O)C2C(NN=3)N(CC)C(=O)N2CC)c2ccccc21 (stereo not given) is -10% or above.
Outgoing: 1 (yes)

Incoming: Threshold query (growth >= -10%) on CN1C(=O)N(C)C2Nn3c(s/c(=C\c4ccccn4)c3=O)=NC21 (stereo not given)
Outgoing: 1 (yes)

Incoming: Assess whether reported growth for "O=C(CSc1nnc(-c2ccc(Cl)cc2)n1-c1ccccc1)Nc1ccc(F)cc1" sits at -10% or higher.
Outgoing: 1 (yes)

Incoming: Has CCN1C(=O)N(CC)C2SC(N/N=C/c3ccccc3)=NC21 (stereo not given) a recorded growth greater than or equal to -10%?
Outgoing: 0 (no)

Incoming: Is it the case that "C#C[C@]1(O)CC[C@H]2[C@@H]3CC=C4c5sc(Nc6ccncc6)nc5CC[C@]4(C)[C@H]3CC[C@@]21C" has growth reaching or exceeding -10%?
Outgoing: 0 (no)

###

Tested on: RXF 393 renal
protocol summary: NCI-60 one-dose screen, 48 h (100 = growth as untreated, 0 = no growth, -100 = all killed)
reported conditions: 10 µM unless noted
The panel holds about 83,000 compounds, 20% with a hit somewhere; the sample as a whole holds those more often.
measure name: growth (%)
All answers are understood in %, so give the number only.

Incoming: Tell me growth reported for "O=C1[C@@H]2Cc3c([nH]c4ccccc34)[C@H](c3c(Cl)cccc3Cl)N2C(=O)CN1C1CCN(Cc2ccccc2)CC1"
Outgoing: 55.9

Incoming: Provide growth value for the following molecule: "C#C[C@]1(O)CC[C@H]2[C@@H]3CC=C4c5sc(Nc6cc(Cl)ccn6)nc5CC[C@]4(C)[C@H]3CC[C@@]21C"
Outgoing: -52.8

Incoming: Supply growth value. Item: "CS(=O)(=O)c1ccc(-c2nn(-c3ccccc3)cc2/C=N/NC(=O)c2ccncc2)cc1"
Outgoing: 78.2

Incoming: Output measured growth for this item: CCOC(=O)C1=C(C)Nc2nc3ccccc3n2C1c1ccccc1 (stereo not given)
Outgoing: 107

Incoming: Could you please provide reported growth for "COc1cc(/C=N/n2cnc3oc(-c4ccccc4)cc3c2=N)cc(CN2CCCC2)c1O" ? Thanks!
Outgoing: 15.7

Incoming: Report growth, nothing else, for this molecule: C#CCOc1ccc(C(Nc2ccc(OC)cc2)c2nnnn2C2CCCCC2)cc1 (stereo not given)
Outgoing: 114

Incoming: Fill in growth for record "CCOC(=O)c1c(NCC(=O)Nc2ccc(Br)cc2)sc2c1CCCC2"
Outgoing: -50.1

Incoming: Respond only with growth recorded for "CC1=CC(=O)CC(C)(C)[C@@]1(O)/C=C/C(C)=C\C(=O)O"
Outgoing: -64.2

Incoming: Could you please provide reported growth for CCN1C(=O)N(CC)C2SC(N/N=C/C=C/c3ccccc3OC)=NC21 (stereo not given) ? Thanks!
Outgoing: 20.5

Incoming: Retrieve growth measured for "Fc1ccccc1/C=C(/C1=NCCN1)n1cnc2ccccc21" and print it.
Outgoing: 84.1

###

System: NCI-H522 lung
protocol summary: NCI-60 one-dose screen, 48 h (100 = growth as untreated, 0 = no growth, -100 = all killed)
reported conditions: 10 µM unless noted
The panel holds about 83,000 compounds, 20% with a hit somewhere; the sample as a whole holds those more often.
Hi, to clarify the labels: yes (1) covers growth from 80% upward, no (0) covers anything below 80%.

Incoming: Has "COc1ccc([C@H]2c3[nH]c4ccccc4c3C[C@@H]3C(=O)N(C4CCN(Cc5ccccc5)CC4)CC(=O)N23)c(OC)c1" a recorded growth greater than or equal to 80%?
Outgoing: yes (1)

Incoming: Check the entry CCOC(=O)C1=C(C)Nc2nc3ccccc3n2C1c1cccc(Br)c1 (centres undefined) : does growth equal or exceed 80%?
Outgoing: no (0)

Incoming: Is growth for "NNC(=O)c1sc2nc(-c3cnccn3)cc(-c3cccs3)c2c1N" at or above 80%?
Outgoing: yes (1)

Incoming: Determine whether this compound has growth no lower than 80%: Cc1ccc(C2CC(c3ccc(Nc4nc(NCCO)nc(Nc5ccc(Cl)cc5)n4)cc3)=Nc3c(N)nc(N)nc3N2)cc1 (centres undefined)
Outgoing: no (0)

Incoming: Please indicate if the recorded growth for "CCOC(=O)c1c(NCC(=O)Nc2ccc(Br)cc2)sc2c1CCCC2" meets or exceeds 80%.
Outgoing: no (0)

Incoming: Reported growth reaches at least 80% for "CCOC(=O)c1c(NC(=O)c2cccc(C(F)(F)F)c2)sc2c(CN3CCN(C)CC3)c(O)ccc12" ?
Outgoing: no (0)

Incoming: Hi, just wondering whether "O=C(Cn1cc(CN2C(=O)c3ccc([N+](=O)[O-])cc3C2=O)nn1)Nc1ccccc1Br" shows growth of 80% or higher.
Outgoing: yes (1)

Incoming: API: above_or_equal(metric=growth, cutoff=80%) for item CC(=O)c1ccc(NC(=O)COc2ccc(C3SCC(=O)N3c3ccc(Br)cc3)cc2)cc1 (centres undefined)
Outgoing: yes (1)

###

System: OVCAR-8 ovarian
protocol summary: NCI-60 one-dose screen, 48 h (100 = growth as untreated, 0 = no growth, -100 = all killed)
reported conditions: 10 µM unless noted
The panel holds about 83,000 compounds, 20% with a hit somewhere; the sample as a whole holds those more often. The source made the active and inactive calls. The calls were made as follows: active = growth percent below 10; inactive = the rest.
Would you kindly list growth for each of these compounds?

Incoming: Give me measured growth, please, for this compound: "O=C(COc1cccc2cccnc12)Nc1ccc(C(=O)/C=C/c2ccc(Cl)cc2)cc1"
Outgoing: 94.4% (inactive)

Incoming: Let me know recorded growth for "COc1cc2c3c(n(CCCN4CCCC4)c(=O)c2cc1OC)-c1cc2c(cc1C3=O)OCO2" , thanks.
Outgoing: -65.3% (active)

Incoming: State its growth for this compound: "C#C[C@]1(O)CC[C@H]2[C@@H]3CC=C4c5sc(Nc6cccc(Cl)n6)nc5CC[C@]4(C)[C@H]3CC[C@@]21C"
Outgoing: 29.3% (inactive)

Incoming: State its growth: "CC(=O)Nc1ccc(NC(=O)Nc2cccc(-c3nc(-c4ccc(NC(=O)c5cccs5)cc4Cl)no3)c2)cc1C(F)(F)F"
Outgoing: -15.8% (active)

Incoming: // Input: "N/C(=N\c1nc2c(Cl)cccc2s1)C(Cl)(Cl)Cl" . Output its growth only.
Outgoing: 87.6% (inactive)

Incoming: Give the reported value of growth for this record: O=S(=O)(NC1CC2CCC1C2)c1ccc2c(c1)C(=NO)c1cc(S(=O)(=O)NC3CC4CCC3C4)ccc1-2 (stereo not drawn)
Outgoing: 67% (inactive)

Incoming: Give the measured growth for Cc1ccc(C2CC(c3ccc(Nc4nc(NCCO)nc(Nc5ccc(Cl)cc5)n4)cc3)=Nc3c(N)nc(N)nc3N2)cc1 (stereo not drawn)
Outgoing: -81% (active)

Incoming: Kindly indicate its recorded growth. Item: "CCNC(=O)Oc1ccc(/C(=C(/C)c2ccc(Cl)cc2)c2ccc(OCCN(C)C)cc2)cc1"
Outgoing: 87.9% (inactive)

Incoming: For the compound "COC(=O)[C@@]1(C)CC[C@]2(C)CC[C@]3(C)C(=CC(=O)[C@@H]4[C@@]5(C)Cc6c(n(CC#CCN7CCN(C)CC7)c7ccccc67)C(C)(C)[C@@H]5CC[C@]43C)[C@@H]2C1" , give its measured growth value.
Outgoing: 93.8% (inactive)

Incoming: Indicate its recorded growth; the compound in question is "O=c1cc(-c2ccccc2)nc2sc(-c3c[nH]c4ccc(Br)cc34)nn12"
Outgoing: 106% (inactive)

Incoming: Write down growth measured for item "c1ccc(-c2n(Cc3ccc4ccccc4c3)c3c4ccccc4c4ccccc4c3[n+]2Cc2ccc3ccccc3c2)cc1"
Outgoing: -69.1% (active)

Incoming: Check the records and state growth for "C=C(C)[C@@H]1CC[C@]2(COS(C)(=O)=O)CC[C@]3(C)[C@H](CC[C@@H]4[C@@]5(C)CCCNC(C)(C)[C@@H]5CC[C@]43C)[C@@H]12"
Outgoing: 92.1% (inactive)

Incoming: Output measured growth for this item: "Nc1ccc(-c2nnc(SCc3ccc(O)c4ncccc34)n2-c2ccccc2)cc1"
Outgoing: 12.5% (inactive)

Incoming: Look up growth of "COc1ccc(NC2=C(Cl)C(=O)C(C)=C(C)C2=O)cc1" and report it.
Outgoing: 51.8% (inactive)

Incoming: Consider the compound "CCOC(=O)c1c(NCC(=O)Nc2ccc(Br)cc2)sc2c1CCCC2" . State its measured growth.
Outgoing: 36.5% (inactive)

Incoming: Look up and state reported growth for "COc1cc(CNC(=O)Cc2ccccc2[N+](=O)[O-])ccc1OCC(=O)NO"
Outgoing: 101% (inactive)

Incoming: Quickly give me recorded growth for "CC1CCN(S(=O)(=O)c2ncsc2-c2ccccc2)CC1"
Outgoing: 101% (inactive)

Incoming: Provide growth value for the following compound: "Cc1nc(-c2cc3ccccc3c(N3CCN(C)CC3)n2)cs1"
Outgoing: 98.8% (inactive)
